B1: EEHEE_rd4_0763 (parent)
chain: LTVHVGNVTYHFDNPEQAEEWAKRMAKKYQGQIHVKDGQFRIE

variants of: B1; experiment: folding stability dG (cDNA display proteolysis); higher = more stable; settings: PBS, room temperature
Would you please tag the item fulfilled when its folding stability dG is 1 kcal/mol or above, and not fulfilled when it is below?

Dear colleague, could you confirm whether LTVHVGNVTYHFDNPEQAEEWAKRMAKKYQGQIHVKDGQFRPE has folding stability dG at or above 1 kcal/mol?
fulfilled

State whether the measured folding stability dG reaches 1 kcal/mol, counting equality as reaching it, for LTVHVGNVTYHFDNPEQAEEWAKRMAKKYQGQIHVKDGQDRIE
fulfilled

Entry LTVHVGNVTYHFDNPEQLEEWAKRMAKKYQGQIHVKDGQFRIE : is its folding stability dG no less than 1 kcal/mol?
fulfilled
